- study_system: UniProt Q96EB6
- Sequence (Q96EB6 whole entry): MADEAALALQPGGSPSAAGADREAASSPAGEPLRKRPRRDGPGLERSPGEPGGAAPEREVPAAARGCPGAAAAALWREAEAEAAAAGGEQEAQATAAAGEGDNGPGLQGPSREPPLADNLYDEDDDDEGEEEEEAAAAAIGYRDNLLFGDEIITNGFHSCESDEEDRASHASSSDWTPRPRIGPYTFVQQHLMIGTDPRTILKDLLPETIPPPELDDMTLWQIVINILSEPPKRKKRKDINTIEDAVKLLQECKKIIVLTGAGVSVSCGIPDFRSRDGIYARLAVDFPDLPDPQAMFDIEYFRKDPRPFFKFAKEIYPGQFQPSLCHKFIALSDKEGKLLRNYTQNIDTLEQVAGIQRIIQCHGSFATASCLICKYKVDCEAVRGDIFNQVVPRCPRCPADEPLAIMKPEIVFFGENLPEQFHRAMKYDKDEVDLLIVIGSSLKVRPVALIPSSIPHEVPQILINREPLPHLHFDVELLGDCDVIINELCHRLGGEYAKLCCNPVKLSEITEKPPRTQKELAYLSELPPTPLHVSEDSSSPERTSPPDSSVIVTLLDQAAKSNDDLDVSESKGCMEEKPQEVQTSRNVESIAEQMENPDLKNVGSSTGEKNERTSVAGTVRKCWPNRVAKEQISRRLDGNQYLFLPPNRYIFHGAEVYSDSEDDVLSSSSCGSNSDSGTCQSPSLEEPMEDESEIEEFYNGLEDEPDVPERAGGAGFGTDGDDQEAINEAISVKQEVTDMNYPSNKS
- test_summary: Mass spectrometry based assay to identify modulators of SIRT1 activity (deacetylation of p53-based acetylated peptide)
- Type: biochemical
- test_parameters: 10 nM SIRT1, 0.5 μM peptide substrate, 120 μM βNAD+, 25 minutes at 25° C.
outcome_measure: % Fold Act. (percent maximum fold activation)

- compound: "Cn1c(-c2cccc(C(F)(F)F)c2)nc2c(C(=O)Nc3cnccn3)cccc2c1=O [Compound 219]"
  result: "A (Fold activation>200%)"
- compound: "Cn1c(-c2cccnc2)nc2c(NC(=O)c3cnccn3)cccc2c1=O [Compound 278]"
  result: "B (Fold Activation<200%)"
- compound: "O=C(Nc1cnccn1)c1cccc2c(=O)cc(-c3cccc(C(F)F)c3)[nH]c12 [Compound 432]"
  result: "A (Fold activation>200%)"
- compound: "Cn1c(-c2cccc(C(F)(F)F)c2)nc2c(C(=O)Nc3cccc(N4CCOCC4)n3)cccc2c1=O [Compound 293]"
  result: "A (Fold activation>200%)"
- compound: "CN1C(=O)CCC1C(=O)Nc1cccc2c(=O)n(C)c(-c3cccc(C(F)(F)F)c3)nc12 (centres unmarked) [Compound 340]"
  result: "B (Fold Activation<200%)"
- compound: "Cn1c(-c2cccc(C(F)(F)F)c2)nc2c(C(=O)Nc3cccc(OCC(O)CO)c3)cccc2c1=O (centres unmarked) [Compound 286]"
  result: "A (Fold activation>200%)"
- compound: "Cn1c(C2CCC2)nc2c(C(=O)Nc3ccccn3)cccc2c1=O [Compound 224]"
  result: "B (Fold Activation<200%)"
- compound: "Cn1nccc1C(=O)Nc1cccc2c(=O)n(C)c(-c3cccc(C(F)(F)F)c3)nc12 [Compound 248]"
  result: "A (Fold activation>200%)"
- compound: "Cn1c(-c2cccc(Cl)c2)nc2c(C(=O)Nc3cccnc3)cccc2c1=O [Compound 243]"
  result: "B (Fold Activation<200%)"
- compound: "O=C(Nc1cccc2c(=O)cc(-c3cccc(C(F)(F)F)c3)[nH]c12)c1ccccn1 [Compound 408]"
  result: "A (Fold activation>200%)"
- compound: "Cc1cc(NC(=O)c2cccc3c(=O)n(C)c(-c4cccc(C(F)(F)F)c4)nc23)sn1 [Compound 296]"
  result: "B (Fold Activation<200%)"
- compound: "O=C(Nc1cccc2c(=O)cc(-c3cccc(Cl)c3)[nH]c12)c1cnccn1 [Compound 447]"
  result: "A (Fold activation>200%)"
- compound: "Cn1c(-c2cccc(C(F)(F)F)c2)nc2c(NC(=O)c3cccc(N4CCOCC4)c3)cccc2c1=O [Compound 330]"
  result: "A (Fold activation>200%)"
- compound: "O=C(Nc1nccs1)c1cccc2c(=O)cc(-c3ccccc3C(F)(F)F)[nH]c12 [Compound 427]"
  result: "A (Fold activation>200%)"
- compound: "Cc1cc(C)nc(NC(=O)c2cccc3c(=O)n(C)c(-c4cccc(C(F)(F)F)c4)nc23)c1 [Compound 306]"
  result: "A (Fold activation>200%)"
- compound: "O=C(Nc1ccccn1)c1cccc2c(=O)[nH]c(-c3cccc(OC(F)F)c3)nc12 [Compound 325]"
  result: "B (Fold Activation<200%)"
- compound: "Cn1c(-c2cccc(C(F)(F)F)c2)nc2c(C(=O)Nc3cncc(OCC(O)CO)n3)cccc2c1=O (centres unmarked) [Compound 354]"
  result: "A (Fold activation>200%)"
- compound: "Cc1nc(NC(=O)c2cccc3c(=O)n(C)c(-c4cccc(C(F)(F)F)c4)nc23)sc1C [Compound 298]"
  result: "A (Fold activation>200%)"
- compound: "Cn1ccnc1C(=O)Nc1cccc2c(=O)n(C)c(-c3cccc(C(F)(F)F)c3)nc12 [Compound 238]"
  result: "A (Fold activation>200%)"
- compound: "O=C(Nc1ccncn1)c1cccc2c(=O)cc(-c3cccc(C(F)(F)F)c3)[nH]c12 [Compound 415]"
  result: "A (Fold activation>200%)"
- compound: "Cn1c(-c2cccc(C#N)c2)nc2c(C(=O)Nc3ccccn3)cccc2c1=O [Compound 253]"
  result: "B (Fold Activation<200%)"
- compound: "O=C(NC1CN2CCC1CC2)c1cccc2c(=O)cc(-c3cccc(C(F)(F)F)c3)[nH]c12 (centres unmarked) [Compound 414]"
  result: "A (Fold activation>200%)"
- compound: "Cn1c(-c2cccc(C(F)(F)F)c2)nc2c(NC(=O)C3CCC(=O)N3)cccc2c1=O (centres unmarked) [Compound 339]"
  result: "B (Fold Activation<200%)"
- compound: "Cn1c(-c2ccccc2C(F)(F)F)nc2c(C(=O)Nc3ccccn3)cccc2c1=O [Compound 212]"
  result: "A (Fold activation>200%)"
- compound: "CCn1c(-c2cccc(C(F)(F)F)c2)nc2c(NC(=O)c3cnccn3)cccc2c1=O [Compound 232]"
  result: "A (Fold activation>200%)"
- compound: "O=C(Nc1nccs1)c1cccc2c(=O)cc(-c3ccccc3OC(F)F)[nH]c12 [Compound 436]"
  result: "A (Fold activation>200%)"
- compound: "CC(C)Cn1c(-c2cccc(C(F)(F)F)c2)nc2c(NC(=O)c3cnccn3)cccc2c1=O [Compound 234]"
  result: "A (Fold activation>200%)"
- compound: "Cn1c(-c2cccnc2)nc2c(C(=O)Nc3ccccn3)cccc2c1=O [Compound 256]"
  result: "B (Fold Activation<200%)"
- compound: "Cn1cncc1C(=O)Nc1cccc2c(=O)n(C)c(-c3cccc(C(F)(F)F)c3)nc12 [Compound 236]"
  result: "A (Fold activation>200%)"
- compound: "CCc1nnc(NC(=O)c2cccc3c(=O)cc(-c4cccc(C(F)(F)F)c4)[nH]c23)s1 [Compound 400]"
  result: "A (Fold activation>200%)"
- compound: "O=C(Nc1cccc2c(=O)cc(-c3cccc(C(F)(F)F)c3)[nH]c12)c1cnccn1 [Compound 409]"
  result: "A (Fold activation>200%)"
- compound: "O=C(Nc1ccccn1)c1cccc2c(=O)n(CCN3CCCC3)c(-c3cccc(C(F)(F)F)c3)nc12 [Compound 272]"
  result: "B (Fold Activation<200%)"
